Molecular target: Metabotropic glutamate receptor 5 (Rattus norvegicus)
Sequence (P31424 whole entry): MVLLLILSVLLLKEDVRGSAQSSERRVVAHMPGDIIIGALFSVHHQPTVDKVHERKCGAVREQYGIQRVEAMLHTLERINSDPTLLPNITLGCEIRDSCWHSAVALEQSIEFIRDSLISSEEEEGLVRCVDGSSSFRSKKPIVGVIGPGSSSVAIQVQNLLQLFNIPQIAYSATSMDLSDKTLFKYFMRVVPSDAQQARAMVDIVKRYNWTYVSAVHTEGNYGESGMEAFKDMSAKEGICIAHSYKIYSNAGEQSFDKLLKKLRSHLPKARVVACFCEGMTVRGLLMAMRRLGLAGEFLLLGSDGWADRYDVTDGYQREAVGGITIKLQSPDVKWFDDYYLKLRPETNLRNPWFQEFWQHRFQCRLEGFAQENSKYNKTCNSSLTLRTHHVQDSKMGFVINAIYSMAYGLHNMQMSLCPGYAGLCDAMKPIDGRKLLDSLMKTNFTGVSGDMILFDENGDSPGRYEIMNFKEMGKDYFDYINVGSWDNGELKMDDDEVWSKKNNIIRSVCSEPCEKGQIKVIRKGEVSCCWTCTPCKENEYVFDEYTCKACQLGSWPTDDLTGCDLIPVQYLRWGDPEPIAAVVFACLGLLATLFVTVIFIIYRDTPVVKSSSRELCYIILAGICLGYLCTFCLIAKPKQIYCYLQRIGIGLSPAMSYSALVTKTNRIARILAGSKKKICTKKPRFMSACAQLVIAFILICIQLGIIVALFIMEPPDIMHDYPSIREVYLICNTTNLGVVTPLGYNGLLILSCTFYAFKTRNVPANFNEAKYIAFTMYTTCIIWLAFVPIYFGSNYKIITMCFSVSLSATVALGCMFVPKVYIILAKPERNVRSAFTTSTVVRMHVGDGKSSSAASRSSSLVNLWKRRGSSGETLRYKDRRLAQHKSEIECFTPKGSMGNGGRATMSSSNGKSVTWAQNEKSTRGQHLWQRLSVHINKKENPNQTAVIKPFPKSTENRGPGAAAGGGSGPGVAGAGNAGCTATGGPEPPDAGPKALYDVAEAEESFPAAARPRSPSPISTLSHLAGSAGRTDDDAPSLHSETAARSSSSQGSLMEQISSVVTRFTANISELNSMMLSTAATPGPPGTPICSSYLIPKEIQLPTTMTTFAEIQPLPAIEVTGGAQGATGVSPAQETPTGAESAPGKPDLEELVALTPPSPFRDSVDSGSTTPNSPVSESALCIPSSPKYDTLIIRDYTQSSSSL
Assay: Allosteric modulation of mGluR5 in E17 rat neuronal cultures assessed as inhibition of (S)-3,5-dihydroxyphenylglycine-induced calcium level
I'd appreciate it if you marked entries yes (1) when IC50 is lower than 1 µM and no (0) when it is not.

Observe how each entry below is paired with its result.
molecule="N#Cc1cccc(-c2noc(C3CCCCN3C(=O)c3cccs3)n2)c1 (racemic)" assigned_category="no (0)"
molecule="COc1cccc(-c2noc(C3CCCCN3C(=O)C3CCC3)n2)c1 (racemic)" assigned_category="yes (1)"

Query: Input Cc1cccc(-n2nnc(C3CCCCN3C(=O)C3CCC3)n2)c1 (racemic) ; condition: IC50 strictly below 1 µM. Does it hold?
Reply: yes (1)

Query: Confirm or reject: IC50 of Cc1ccc(C(=O)N2CCCC2c2nc(-c3cccc(Cl)c3)no2)s1 (racemic) lies strictly below 1 µM
Reply: no (0)

* * *

Target: Metabotropic glutamate receptor 5 (Homo sapiens)
Sequence (P41594 whole entry): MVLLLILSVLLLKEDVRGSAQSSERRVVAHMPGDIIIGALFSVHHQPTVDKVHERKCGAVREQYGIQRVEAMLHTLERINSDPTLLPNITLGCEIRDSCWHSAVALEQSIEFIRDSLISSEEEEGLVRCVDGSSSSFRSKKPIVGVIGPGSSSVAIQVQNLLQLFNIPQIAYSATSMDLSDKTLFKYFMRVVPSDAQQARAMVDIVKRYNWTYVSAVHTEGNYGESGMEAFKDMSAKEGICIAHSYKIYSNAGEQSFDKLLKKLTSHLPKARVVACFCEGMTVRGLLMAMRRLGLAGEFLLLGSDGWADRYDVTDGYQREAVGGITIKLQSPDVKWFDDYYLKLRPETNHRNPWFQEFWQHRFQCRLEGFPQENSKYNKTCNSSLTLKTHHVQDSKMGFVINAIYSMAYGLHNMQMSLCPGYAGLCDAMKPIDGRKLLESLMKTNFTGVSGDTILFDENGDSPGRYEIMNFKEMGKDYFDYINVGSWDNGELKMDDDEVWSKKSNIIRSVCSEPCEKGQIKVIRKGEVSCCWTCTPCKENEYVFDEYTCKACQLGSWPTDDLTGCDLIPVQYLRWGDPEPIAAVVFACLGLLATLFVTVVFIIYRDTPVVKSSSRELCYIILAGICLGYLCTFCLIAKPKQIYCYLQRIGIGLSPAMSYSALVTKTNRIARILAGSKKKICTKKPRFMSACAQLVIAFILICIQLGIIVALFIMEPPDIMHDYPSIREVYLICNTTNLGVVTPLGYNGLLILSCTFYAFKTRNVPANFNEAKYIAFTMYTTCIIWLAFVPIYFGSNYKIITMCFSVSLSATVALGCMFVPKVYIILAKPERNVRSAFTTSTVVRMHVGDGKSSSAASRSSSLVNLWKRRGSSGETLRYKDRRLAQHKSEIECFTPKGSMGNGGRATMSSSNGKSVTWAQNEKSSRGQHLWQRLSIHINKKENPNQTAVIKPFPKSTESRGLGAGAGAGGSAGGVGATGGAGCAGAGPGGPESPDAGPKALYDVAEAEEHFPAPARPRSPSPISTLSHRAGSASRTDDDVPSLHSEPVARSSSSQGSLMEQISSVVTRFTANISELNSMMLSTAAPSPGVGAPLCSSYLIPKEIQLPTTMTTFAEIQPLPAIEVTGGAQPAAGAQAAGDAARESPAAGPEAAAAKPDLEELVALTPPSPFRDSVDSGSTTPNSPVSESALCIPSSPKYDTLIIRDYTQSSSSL
assay-endpoint: pKi
Friendly reminder that pKi comes from taking -log10 of the concentration in mol/L.

Query: State its pKi: CN1CC(=O)N=C1NC(=O)Nc1cccc(Cl)c1 [FENOBAM ANHYDROUS]
Reply: 8.17
